target: human ether-à-go-go-related gene (hERG) potassium channel (human, UniProt Q12809); assay: primary screen, population patch clamp on CHO cells stably expressing hERG; higher = less effect of the substance;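 note: peak tail current of the secondary pulse compared with the same well before compound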
Sequence (Q12809 whole entry, looked up): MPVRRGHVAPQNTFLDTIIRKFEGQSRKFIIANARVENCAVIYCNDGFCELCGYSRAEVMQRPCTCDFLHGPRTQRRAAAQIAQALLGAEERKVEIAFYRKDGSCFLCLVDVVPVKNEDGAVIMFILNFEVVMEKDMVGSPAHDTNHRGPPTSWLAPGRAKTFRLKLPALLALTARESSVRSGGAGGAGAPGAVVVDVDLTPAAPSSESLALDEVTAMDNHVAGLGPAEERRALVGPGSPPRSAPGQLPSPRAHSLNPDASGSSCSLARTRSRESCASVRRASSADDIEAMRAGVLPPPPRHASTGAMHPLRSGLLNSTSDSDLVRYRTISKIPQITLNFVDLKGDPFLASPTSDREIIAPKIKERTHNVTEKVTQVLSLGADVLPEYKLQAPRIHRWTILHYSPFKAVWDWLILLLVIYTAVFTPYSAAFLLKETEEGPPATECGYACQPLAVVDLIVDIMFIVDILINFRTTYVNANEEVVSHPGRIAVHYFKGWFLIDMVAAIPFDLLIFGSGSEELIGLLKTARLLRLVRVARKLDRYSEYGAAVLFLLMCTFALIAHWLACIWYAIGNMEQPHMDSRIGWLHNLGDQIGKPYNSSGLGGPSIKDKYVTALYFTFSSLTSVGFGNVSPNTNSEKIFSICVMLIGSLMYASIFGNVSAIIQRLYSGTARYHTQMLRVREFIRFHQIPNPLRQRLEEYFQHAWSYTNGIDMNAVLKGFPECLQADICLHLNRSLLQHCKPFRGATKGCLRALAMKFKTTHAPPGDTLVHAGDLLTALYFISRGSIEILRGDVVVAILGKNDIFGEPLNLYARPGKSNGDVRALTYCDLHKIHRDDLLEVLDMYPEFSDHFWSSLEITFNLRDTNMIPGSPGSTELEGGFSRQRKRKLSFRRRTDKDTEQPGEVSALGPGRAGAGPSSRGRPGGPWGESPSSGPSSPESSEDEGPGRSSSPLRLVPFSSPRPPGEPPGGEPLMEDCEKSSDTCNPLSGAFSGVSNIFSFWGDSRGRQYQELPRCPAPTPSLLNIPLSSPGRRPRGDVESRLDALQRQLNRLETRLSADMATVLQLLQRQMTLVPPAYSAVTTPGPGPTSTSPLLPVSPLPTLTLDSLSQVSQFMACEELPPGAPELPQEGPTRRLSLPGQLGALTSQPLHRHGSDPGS
The campaign covered roughly 310,000 compounds. About 14,000 (4.5%) showed an effect of 50% or more. The effect is printed as a negative number. For the sample, strong results were picked, then their nearest neighbours and some compounds at random.
Decision: hERG current change (%, negative = inhibition) at 10uM compared against -50%; not below it gives 1, below it gives 0.

| Mol smiles | Label class |
| --- | --- |
| CCCCn1c(=NC(=O)c2ccco2)c(C(=O)OCC)cc2c(=O)n3ccccc3nc21 | 0 |
| O=C(c1ccc2c(c1)OCO2)N1CCN(c2ccc(F)cc2)CC1 | 1 |
| CC(=O)c1ccc(N2CCN(C(=O)c3ccc4c(c3)OCO4)CC2)cc1 | 1 |
